Attribution: patent US20210186943A1

Tested on: cochlear hair cells

molecule: CN1CCCC1=O
HC Toxicity: Yes
//
molecule: O=C(OCc1ccccc1)c1ccccc1 [Benzyl benzoate]
HC Toxicity: No
//
molecule: C[S+](C)[O-] [DMSO, dimethyl sulfoxide]
HC Toxicity: No
//
molecule: CCO
HC Toxicity: No
